Could you please report measured IC50 for the items listed next?
Test system: AsPC-1 (K-Ras G12D)
Experiment: CellTiter-Glo cell viability assay, AsPC-1
Type: cell-based
Details: Homo sapiens, ASPC1, 120 h, read-out: AsPC-1 Cell Viability IC50, AsPC-1, K-Ras G12D, 5-day treatment

For each entry beneath this line, provide reported IC50.
1. CCn1c(-c2cccnc2[C@H](C)OC)c2c3cc(ccc31)-c1cc(O)cc(c1)C[C@H](NC(=O)[C@H](C(C)C)N(C)C(=O)CN(C)C(=O)[C@H]1N[C@H]1C1CC1)C(=O)N1CCC[C@H](N1)C(=O)OCC(C)(C)C2
2. CCn1c(-c2cnccc2COC)c2c3cc(ccc31)-c1cc(O)cc(c1)C[C@H](NC(=O)[C@H](C(C)C)N(C)C(=O)CN(C)C(=O)[C@@H]1CN1Cc1ccccc1)C(=O)N1CCC[C@H](N1)C(=O)OCC(C)(C)C2 (stereo partly shown)
3. CCn1c(-c2cccnc2[C@H](C)OC)c2c3cc(ccc31)-c1cc(O)cc(c1)C[C@H](NC(=O)[C@H](C1CCCC1)N(C)C(=O)CN(C)C(=O)[C@H]1CN1)C(=O)N1CCC[C@H](N1)C(=O)OCC(C)(C)C2
4. CCn1c(-c2cccnc2[C@H](C)OC)c2c3cc(ccc31)-c1cc(O)cc(c1)C[C@H](NC(=O)[C@H](C(C)C)N(C)C(=O)CN(C)C(=O)[C@H]1CN1CCCN1CCOC1=O)C(=O)N1CCC[C@H](N1)C(=O)OCC(C)(C)C2 (stereo partly shown)

Return:
1. 1000 to 10000 nM
2. 1000 to 10000 nM
3. 10 to 100 nM
4. 1000 to 10000 nM

====

Molecular target: NRAS WT (Homo sapiens, UniProt P01111+P62937)
Construct: His6
Sequence (P01111 whole entry): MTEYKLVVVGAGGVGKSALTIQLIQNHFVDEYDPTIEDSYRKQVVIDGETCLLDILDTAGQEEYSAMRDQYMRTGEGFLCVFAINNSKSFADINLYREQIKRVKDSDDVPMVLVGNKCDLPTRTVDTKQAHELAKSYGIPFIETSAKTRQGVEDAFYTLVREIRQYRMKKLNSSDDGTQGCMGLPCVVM
Sequence (P62937 whole entry): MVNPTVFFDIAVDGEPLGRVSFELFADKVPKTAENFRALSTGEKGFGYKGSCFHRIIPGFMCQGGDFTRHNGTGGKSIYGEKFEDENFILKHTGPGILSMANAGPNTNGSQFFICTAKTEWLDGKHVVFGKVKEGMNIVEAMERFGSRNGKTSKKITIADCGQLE
Assay: Ras-Raf disruption/FRET/MOA assay, NRAS WT
Format: biochemical
Settings: NRAS WT; read-out: NRAS WT FRET data IC50
Could you please report measured IC50 for the items listed next?

Example cases with answers are listed next.
mol=CCn1c(-c2cccnc2[C@H](C)OC)c2c3cc(ccc31)-c1cc(cc(C(F)F)c1)C[C@H](NC(=O)[C@H](C1CCCC1)N1CC[C@]3(CCN(C(=O)[C@@H]4N[C@@H]4C4CC4)C3)C1=O)C(=O)N1CCC[C@H](N1)C(=O)OCC(C)(C)C2 observed_property=IC50 observed_result="1000 to 10000 nM"
mol=CCn1c(-c2cc(N3CCN(C)CC3)cnc2[C@H](C)OC)c2c3cc(ccc31)-c1csc(n1)C[C@H](NC(=O)[C@H](C1CCCC1)N1CC[C@]3(CCN(C(=O)[C@@H]4N[C@@H]4C4CC4)C3)C1=O)C(=O)N1CCC[C@H](N1)C(=O)OCC(C)(C)C2 observed_property=IC50 observed_result="100 to 1000 nM"
mol=CCn1c(-c2cccnc2[C@H](C)OC)c2c3cc(ccc31)-c1csc(n1)C[C@H](NC(=O)[C@H](C1CCCC1)N1CC[C@]3(CCN(C(=O)[C@@H]4N[C@@H]4C4CC4)C3)C1=O)C(=O)N1CCC[C@H](N1)C(=O)OCC(C)(C)C2 observed_property=IC50 observed_result="1000 to 10000 nM"

Turning to the following molecule.
Enquiry: Answer with reported IC50 of CCn1c(-c2cccnc2[C@H](C)OC)c2c3cc(ccc31)-c1cc(CF)cc(c1)C[C@H](NC(=O)[C@H](C1CCCC1)N1CC[C@]3(CCN(C(=O)[C@@H]4N[C@@H]4C4CC4)C3)C1=O)C(=O)N1CCC[C@H](N1)C(=O)OCC(C)(C)C2
Return: 100 to 1000 nM

====

Target: KRAS G12S (Homo sapiens, UniProt P01116+P62937, G12S)
Sequence (P01116 1-169 isoform P01116-2 G12S limits assumed): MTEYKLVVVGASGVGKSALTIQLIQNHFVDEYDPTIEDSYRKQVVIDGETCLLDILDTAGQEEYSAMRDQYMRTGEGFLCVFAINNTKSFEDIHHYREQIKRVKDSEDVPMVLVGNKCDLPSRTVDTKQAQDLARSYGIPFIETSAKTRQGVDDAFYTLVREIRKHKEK
Sequence (P62937 whole entry): as the sequence (P62937 whole entry) above
Experiment: Ras-Raf disruption/FRET/MOA assay, KRAS G12S
Type: biochemical
Settings: disruption of BRAF RBD binding, with Cyclophilin A; read-out: KRAS G12S FRET IC50
Source text: Disruption of B-Raf Ras-Binding Domain (BRAF^RBD) Interaction with K-Ras by Compounds of the Invention (Also Called a FRET Assay or an MOA Assay) Note—The following protocol describes a procedure for monitoring disruption of K-Ras G12C (GMP-PNP) binding to BRAF^RBD by a compound of the invention. This protocol may also be executed substituting other Ras proteins or nucleotides, such as K-Ras G12D and K-Ras G13D. […]
observed property: IC50

molecule=CCn1c(-c2cccnc2[C@H](C)OC)c2c3cc(ccc31)-c1cc(cc(C(F)F)c1)C[C@H](NC(=O)[C@H](C1CCCC1)N1CC[C@]3(CCN(C(=O)[C@@H]4N[C@@H]4C4CC4)C3)C1=O)C(=O)N1CCC[C@H](N1)C(=O)OCC(C)(C)C2 observed_result="1000 to 10000 nM"
molecule="CCn1c(-c2cccnc2[C@H](C)OC)c2c3cc(ccc31)-c1csc(n1)C[C@H](NC(=O)[C@H](C(C)C)N(C)C(=O)N1CCC[C@H](N(C)C(=O)[C@H]3CN3)C1)C(=O)N1CCC[C@H](N1)C(=O)OCC(C)(C)C2 (atropisomer, axis not shown)" observed_result="100 to 1000 nM"

Turning to the following molecule.
Enquiry: Answer with reported IC50 of CCn1c(-c2cccnc2[C@H](C)OC)c2c3cc(ccc31)-c1cc(O)cc(c1)C[C@H](NC(=O)[C@H](C(C)C)N1CCCC3(CN(C(=O)[C@H]4CN4)C3)C1=O)C(=O)N1CCC[C@H](N1)C(=O)OCC(C)(C)C2
Return: 10 to 100 nM

====

Tested on: AsPC-1 (K-Ras G12D)
Assay: CellTiter-Glo cell viability assay, AsPC-1
Assay type: cell-based
Conditions: Homo sapiens, ASPC1, 120 h, read-out: AsPC-1 Cell Viability IC50, AsPC-1, K-Ras G12D, 5-day treatment
observed property: IC50

Example cases with answers are listed next.
compound="CCn1c(-c2cccnc2[C@H](C)OC)c2c3cc(ccc31)-c1cc(O)cc(c1)C[C@H](NC(=O)[C@H](C(C)C)N(C)C(=O)CN(C)C(=O)[C@@H]1CN1CCCOC)C(=O)N1CCC[C@H](N1)C(=O)OCC(C)(C)C2 (stereo partly shown)" observed_result="100 to 1000 nM"
compound=CCn1c(-c2cccnc2[C@H](C)OC)c2c3cc(ccc31)-c1cc(O)cc(c1)C[C@H](NC(=O)[C@H](C(C)C)N(C)C(=O)CN(C)C(=O)[C@H]1N[C@@H]1C(F)(F)F)C(=O)N1CCC[C@H](N1)C(=O)OCC(C)(C)C2 observed_result="100 to 1000 nM"

For each entry beneath this line, provide reported IC50.
1. CCn1c(-c2cccnc2[C@H](C)OC)c2c3cc(ccc31)-c1cc(O)cc(c1)C[C@H](NC(=O)[C@H](C(C)C)N(C)C(=O)CN(C)C(=O)[C@H]1CN1CCO)C(=O)N1CCC[C@H](N1)C(=O)OCC(C)(C)C2 (stereo partly shown)
2. CCn1c(-c2cccnc2[C@H](C)OC)c2c3cc(ccc31)-c1cc(O)cc(c1)C[C@H](NC(=O)[C@H](C(C)C)N(C)C(=O)CN(C)C(=O)[C@H]1N[C@H]1C(F)(F)F)C(=O)N1CCC[C@H](N1)C(=O)OCC(C)(C)C2

Return:
1. 1000 to 10000 nM
2. 100 to 1000 nM

====

Could you please report measured pIC50 for the items listed next?
Biological target: KRAS G12C (Homo sapiens, UniProt P01116+P62937, G12C)
Sequence (P01116 1-169 isoform P01116-2 G12C limits assumed): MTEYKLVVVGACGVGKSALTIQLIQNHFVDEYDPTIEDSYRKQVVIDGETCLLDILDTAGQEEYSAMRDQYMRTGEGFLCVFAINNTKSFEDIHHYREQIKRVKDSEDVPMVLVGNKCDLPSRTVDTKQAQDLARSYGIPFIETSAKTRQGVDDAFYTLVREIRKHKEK
Sequence (P62937 whole entry): as the sequence (P62937 whole entry) above
Test: Ras-Raf disruption/FRET/MOA assay, KRAS G12C
Format: biochemical
Conditions: disruption of BRAF RBD binding, with Cyclophilin A; read-out: KRAS G12C FRET IC50
Excerpt: Disruption of B-Raf Ras-Binding Domain (BRAF^RBD) Interaction with K-Ras by Compounds of the Invention (Also Called a FRET Assay or an MOA Assay) Note—The following protocol describes a procedure for monitoring disruption of K-Ras G12C (GMP-PNP) binding to BRAF^RBD by a compound of the invention. This protocol may also be executed substituting other Ras proteins or nucleotides, such as K-Ras G12D and K-Ras G13D. […]
pIC50: −log10 of the molar value.

Example cases with answers are listed next.
compound=CCn1c(-c2cnccc2COC)c2c3cc(ccc31)-c1cc(O)cc(c1)C[C@H](NC(=O)[C@H](C(C)C)N(C)C(=O)CN(C)C(=O)[C@H]1CN1C(=O)OC)C(=O)N1CCC[C@H](N1)C(=O)OCC(C)(C)C2 observed_result="7.00 to 8.00"
compound="CCn1c(-c2cnccc2COC)c2c3cc(ccc31)-c1cc(O)cc(c1)C[C@H](NC(=O)[C@H](C(C)C)N(C)C(=O)CN(C)C(=O)[C@@H]1CN1S(C)(=O)=O)C(=O)N1CCC[C@H](N1)C(=O)OCC(C)(C)C2 (some centres unmarked)" observed_result="7.00 to 8.00"
compound=CCn1c(-c2cccnc2[C@H](C)OC)c2c3cc(ccc31)-c1cc(O)cc(c1)C[C@H](NC(=O)[C@H](C(C)C)N1CO[C@]3(CCN(C(=O)[C@H]4CN4)C3)C1=O)C(=O)N1CCC[C@H](N1)C(=O)OCC(C)(C)C2 observed_result="> 8.00"
compound=CCn1c(-c2cccnc2[C@H](C)OC)c2c3cc(ccc31)-c1cc(O)cc(c1)C[C@H](NC(=O)[C@H](C(C)C)N1CO[C@@]3(CCN(C(=O)[C@H]4CN4)C3)C1=O)C(=O)N1CCC[C@H](N1)C(=O)OCC(C)(C)C2 observed_result="7.00 to 8.00"
compound=CCn1c(-c2cccnc2[C@H](C)OC)c2c3cc(ccc31)-c1cc(O)cc(c1)C[C@H](NC(=O)[C@H](C(C)C)N1CC[C@]3(CCCN(C(=O)[C@H]4CN4)C3)C1=O)C(=O)N1CCC[C@H](N1)C(=O)OCC(C)(C)C2 observed_result="> 8.00"

For each entry beneath this line, provide reported pIC50.
1. CCn1c(-c2cccnc2[C@H](C)OC)c2c3cc(ccc31)-c1cc(cc(C(F)F)c1)C[C@H](NC(=O)[C@H](C1CCCC1)N1CC[C@]3(CCN(C(=O)[C@H]4CN4)C3)C1=O)C(=O)N1CCC[C@H](N1)C(=O)OCC(C)(C)C2
2. CCn1c(-c2cccnc2[C@H](C)OC)c2c3cc(ccc31)-c1cc(O)cc(c1)C[C@H](NC(=O)[C@H](C1CCCC1)N(C)C(=O)[C@H]1CCN(C(=O)[C@H]3CN3)C1)C(=O)N1CCC[C@H](N1)C(=O)OCC(C)(C)C2

Return:
1. 6.00 to 7.00
2. > 8.00

Enquiry: Answer with reported pIC50 of CCn1c(-c2cccnc2[C@H](C)OC)c2c3cc(ccc31)-c1cc(O)cc(c1)C[C@H](NC(=O)[C@H](C(C)C)N1CC[C@@]3(CCCN(C(=O)[C@@H]4CN4)C3)C1=O)C(=O)N1CCC[C@H](N1)C(=O)OCC(C)(C)C2
Return: 7.00 to 8.00
